- System: Staphylococcus aureus
- PROCEDURE SUMMARY: Antibacterial activity against methicillin-resistant Staphylococcus aureus 09-13 by agar dilution method
- Type: functional
Collected log10(MIC) values appear next to each entry.
The figures below represent log10 of MIC, where MIC is stated in µg/mL.

// solved cases for log10(MIC) follow
MOLECULE | TEST TARGET | log10(MIC)
N=C(NC1CC1)c1ccc2cc(-c3ccc(Oc4ccc(-c5cc6ccc(C(=N)NC7CC7)cc6[nH]5)cc4)cc3)[nH]c2c1 | Staphylococcus aureus | 0.60
CC(C)NC(=N)c1ccc2cc(-c3ccc(Oc4ccc(-c5cc6ccc(C(=N)NC(C)C)cc6[nH]5)cc4)cc3)[nH]c2c1 | Staphylococcus aureus | 0.00
N=C(c1ccc2cc(-c3ccc(Oc4ccc(-c5cc6ccc(C(=N)N7CCC(N8CCCC8)CC7)cc6[nH]5)cc4)cc3)[nH]c2c1)N1CCC(N2CCCC2)CC1 | Staphylococcus aureus | 0.90
N=C(NC1CCC1)c1ccc2cc(-c3ccc(Oc4ccc(-c5cc6ccc(C(=N)NC7CCC7)cc6[nH]5)cc4)cc3)[nH]c2c1 | Staphylococcus aureus | 1.81
CCC(C)NC(=N)c1ccc2cc(-c3ccc(Oc4ccc(-c5cc6ccc(C(=N)NC(C)CC)cc6[nH]5)cc4)cc3)[nH]c2c1 (stereo not drawn) | Staphylococcus aureus | 0.00
CCCNC(=N)c1ccc2cc(-c3ccc(Oc4ccc(-c5cc6ccc(C(=N)NCCC)cc6[nH]5)cc4)cc3)[nH]c2c1 | Staphylococcus aureus | 1.20
N=C(NC1CCCC1)c1ccc2cc(-c3ccc(Oc4ccc(-c5cc6ccc(C(=N)NC7CCCC7)cc6[nH]5)cc4)cc3)[nH]c2c1 | Staphylococcus aureus | 1.81

Let's switch to this molecule now.
Problem: // Input: `N=C(c1ccc2cc(-c3ccc(Oc4ccc(-c5cc6ccc(C(=N)N7CCOCC7)cc6[nH]5)cc4)cc3)[nH]c2c1)N1CCOCC1` . Output its log10(MIC) only.
Solution: 0.30
